Reference source for all entries: patent US11660293B2

Biological target: human Orexin type 1 receptors (Homo sapiens (Human), UniProt O43613)
Sequence (O43613 whole entry): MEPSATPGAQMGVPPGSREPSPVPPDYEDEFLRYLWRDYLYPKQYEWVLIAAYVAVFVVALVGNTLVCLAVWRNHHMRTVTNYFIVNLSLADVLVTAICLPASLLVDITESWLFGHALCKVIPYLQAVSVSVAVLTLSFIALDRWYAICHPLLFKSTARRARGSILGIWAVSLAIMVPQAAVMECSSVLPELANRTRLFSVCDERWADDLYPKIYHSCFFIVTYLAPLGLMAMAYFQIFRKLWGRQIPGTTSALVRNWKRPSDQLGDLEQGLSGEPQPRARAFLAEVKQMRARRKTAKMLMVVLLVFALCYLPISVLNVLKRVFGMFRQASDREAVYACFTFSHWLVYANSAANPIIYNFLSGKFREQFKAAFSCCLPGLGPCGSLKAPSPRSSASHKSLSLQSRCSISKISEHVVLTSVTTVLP
Test: Intracellular calcium measurement (FLIPR), antagonism of Orexin-A at EC80 in CHO-hOX1 cells
Property: Ki (nM)

{"columns": ["Molecule", "Ki (nM)"],
 "data": [
  ["Cc1ccc(-n2nccn2)c(C(=O)N2C(COc3ccc(F)cc3)CC3CC2C3)c1 (racemic) [Example 10]", 14.8]
]}

1 = Cc1nc(C(=O)N2C3CC(C3)[C@H](C)[C@@H]2COc2ccc(F)cc2)c(-c2ccccc2)s1 (single isomer, unassigned) [Example 68]
2 = Cc1ccc(-c2ncccn2)c(C(=O)N2C3CC(C3)C(C)C2COc2ccc(F)cc2)c1 (mixture of isomers) [Example 69]
Given 1 and given 2 , which shows the smaller recorded Ki? Response format: the label of the selected entry.
1

----------
Target: human Orexin type 2 receptors (Homo sapiens (Human))
Sequence (O43614 whole entry): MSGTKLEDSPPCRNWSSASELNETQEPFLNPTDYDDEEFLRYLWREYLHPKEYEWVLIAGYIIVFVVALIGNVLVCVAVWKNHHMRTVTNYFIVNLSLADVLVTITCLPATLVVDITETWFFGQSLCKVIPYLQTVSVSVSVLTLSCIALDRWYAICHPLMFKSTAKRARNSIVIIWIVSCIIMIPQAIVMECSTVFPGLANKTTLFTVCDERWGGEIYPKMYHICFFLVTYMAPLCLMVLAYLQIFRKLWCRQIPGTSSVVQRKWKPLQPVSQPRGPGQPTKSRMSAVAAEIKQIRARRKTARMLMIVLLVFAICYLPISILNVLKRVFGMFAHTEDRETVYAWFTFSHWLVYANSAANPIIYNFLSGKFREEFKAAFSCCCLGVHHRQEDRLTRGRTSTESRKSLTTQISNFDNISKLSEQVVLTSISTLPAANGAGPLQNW
Test: Scintillation Proximity Assay (SPA) binding assay, [3H]EMPA displacement, HEK-hOX2 membranes
Settings: Table 2, [3H]EMPA 2 nM
Description: Scintillation Proximity Assay (SPA) Binding Assays […] The binding was performed in a final volume of 200 μl. […] Nonspecific binding was measured in the presence of 1 μM Almorexant. Assay plates were then incubated at room temperature for 3 h before being counted in a Microbeta scintillation counter (PerkinElmer). Data were analysed by non-linear regression analysis using XLfit Software.
We begin with a simple list: items and their reported OX2 pKi (SPA binding).
Provide a numeric answer; units are not to be included.

// lookup OX2 pKi (SPA binding) for Cc1ccc(-n2nccn2)c(C(=O)N2C3CC(C3)[C@@H](C)C2CNc2ncc3ccccc3n2)n1 (stereo partly shown)
5.49

// lookup OX2 pKi (SPA binding) for C[C@@H]1C2CC(C2)N(C(=O)c2cc(Cl)ccc2-n2nccn2)C1CNc1cnc(C2CC2)cn1 (stereo partly shown)
5.41

// lookup OX2 pKi (SPA binding) for Cc1ccc(-n2nccn2)c(C(=O)N2C3CC(C3)[C@H](C)C2CNc2ccc(Cl)cn2)n1 (mixture of isomers)
5.62

// lookup OX2 pKi (SPA binding) for C[C@@H]1C2CC(C2)N(C(=O)c2ccc(F)cc2-n2nccn2)C1CNc1cnc(C(F)(F)F)cn1 (stereo partly shown)
4.95

// lookup OX2 pKi (SPA binding) for C[C@@H]1C2CC(C2)N(C(=O)c2cc(F)ccc2-n2nccn2)C1CNc1cnc(C(F)(F)F)cn1 (mixture of isomers) [Example 221]
4.94

// lookup OX2 pKi (SPA binding) for Cc1ccc(-n2nccn2)c(C(=O)N2C3CC(C3)[C@@H](C)C2CNc2cnc3ccccc3n2)n1 (single isomer, unassigned) [Example 159]
4.59

// lookup OX2 pKi (SPA binding) for Cc1ccc(-c2ncccn2)c(C(=O)N2C3CC(C3)[C@@H](C)C2CNc2cnc(C(F)(F)F)cn2)n1 (mixture of isomers) [Example 248]
4.58

----------
Target: human Orexin type 1 receptors (Homo sapiens (Human), UniProt O43613)
Test: Intracellular calcium measurement (FLIPR), antagonism of Orexin-A at EC80 in CHO-hOX1 cells
Property: Ki (nM)

{"columns": ["Compound", "Units Symbol", "Ki"],
 "data": [
  ["Cc1ccc(-c2ncccn2)c(C(=O)N2C3CC(C3)[C@H](C)[C@H]2COc2ccc(F)cc2)c1 (single isomer, unassigned)", "nM", 13.5]
]}

1 = Cc1nc(C(=O)N2C3CC(C3)C(C)C2COc2cnc3ccc(Cl)cc3n2)c(-c2ccccc2)s1 (mixture of isomers)
2 = Cc1ccc(-n2nccn2)c(C(=O)N2C(COc3ccc(F)cn3)CC3CC2C3)c1 (single isomer, unassigned)
Could you kindly indicate whether 1 or 2 has the higher Ki value? Response format: the label of the selected entry.
1
(1: 75.9 nM, 2: 46.8 nM)

----------
We begin with a simple list: items and their reported OX2 pKi (SPA binding).
Biological target: UniProt:O43614
Assay: Scintillation Proximity Assay (SPA) binding assay, [3H]EMPA displacement, HEK-hOX2 membranes
Conditions: Table 2, [3H]EMPA 2 nM
Provide a numeric answer; units are not to be included.

{"columns": ["Molecule", "Study Target", "OX2 pKi (SPA binding)"],
 "data": [
  ["Cc1cnc(-c2ccc(C)nc2C(=O)N2C3CC(C3)[C@@H](C)C2COc2ccc(F)cc2)nc1 (mixture of isomers) [Example 138]", "UniProt:O43614", 7.05],
  ["Cc1ccc(-n2nccn2)c(C(=O)N2C3CC(C3)[C@@H](C)C2CNc2ccc(C(F)(F)F)cn2)n1 (mixture of isomers) [Example 181]", "UniProt:O43614", 5.09],
  ["Cc1ccc(-n2nccn2)c(C(=O)N2C3CC(C3)[C@@H](C)C2CNc2nc3cccnc3s2)n1 (stereo partly shown) [Example 184]", "UniProt:O43614", 5.07],
  ["Cc1ccc(-n2nccn2)c(C(=O)N2C3CC(C3)[C@@H](C)C2CNc2ncc(C(F)(F)F)cn2)n1 (single isomer, unassigned) [Example 194]", "UniProt:O43614", 4.66],
  ["C[C@@H]1C2CC(C2)N(C(=O)c2cc(F)ccc2-n2nccn2)C1CNc1nc2ccc(F)cc2s1 (single isomer, unassigned) [Example 170]", "UniProt:O43614", 5.99]
]}

// lookup OX2 pKi (SPA binding) for Cc1ccc(-n2nccn2)c(C(=O)N2C3CC(C3)[C@@H](C)C2CNc2nc3cc(F)ccc3s2)n1 (mixture of isomers) [Example 157]
5.63

// lookup OX2 pKi (SPA binding) for Cc1nc(C(=O)N2C3CC(C3)[C@H](C)C2COc2ccc(F)cc2)c(-n2nccn2)s1 (mixture of isomers) [Example 126]
5.7

// lookup OX2 pKi (SPA binding) for C[C@@H]1C2CC(C2)N(C(=O)c2cc(F)ccc2-n2nccn2)C1CNc1ccc(C(F)(F)F)cn1 (single isomer, unassigned) [Example 192]
5.19

// lookup OX2 pKi (SPA binding) for C[C@@H]1C2CC(C2)N(C(=O)c2cc(Cl)ccc2-n2nccn2)C1CNc1nc2cccnc2s1 (mixture of isomers) [Example 234]
5.46

// lookup OX2 pKi (SPA binding) for Cc1ccc(-n2nccn2)c(C(=O)N2C3CC(C3)[C@H](C)C2CNc2nc3ccc(F)cc3s2)n1 (stereo partly shown) [Example 147]
6.66

// lookup OX2 pKi (SPA binding) for Cc1nc(C(=O)N2[C@H]3C[C@H](C3)[C@@H](C)[C@H]2COc2ccc(F)cc2)c(-c2ccccn2)s1 (racemic) [Example 132]
6.72

// lookup OX2 pKi (SPA binding) for C[C@@H]1C2CC(C2)N(C(=O)c2nn(C)cc2-c2ccccc2)C1CNc1ccc(C(F)(F)F)cn1 (mixture of isomers) [Example 210]
5.84

// lookup OX2 pKi (SPA binding) for Cc1nc(C(=O)N2C3CC(C3)[C@H](C)C2COc2ccc(F)cc2)c(-c2ncccn2)s1 (mixture of isomers) [Example 113]
5.72

----------
Molecular target: human Orexin type 1 receptors (Homo sapiens (Human), UniProt O43613)
Assay: Scintillation Proximity Assay (SPA) binding assay, [3H]SB-674042 displacement, CHO-hOX1 membranes
Details: Table 1, [3H]SB-674042 2 nM
We begin with a simple list: items and their reported OX1 pKi (SPA binding).
Provide a numeric answer; units are not to be included.

{"columns": ["Molecule", "Property", "Observed Value"],
 "data": [
  ["Cc1ccc(-c2nccs2)c(C(=O)N2C3CC(C3)[C@H](C)C2COc2ccc(F)cc2)c1 (mixture of isomers) [Example 101]", "OX1 pKi (SPA binding)", 8.02],
  ["Cc1nc(C(=O)N2C(COc3cccc(F)c3)CC3CC2C3)c(-c2ccccc2)s1 (stereo not shown) [Example 44]", "OX1 pKi (SPA binding)", 7.15],
  ["COc1nc(C(=O)N2C(COc3ccc(F)cc3)CC3CC2C3)c(-c2ccccc2)s1 (stereo not shown) [Example 52]", "OX1 pKi (SPA binding)", 7.71],
  ["Cc1nc(C(=O)N2C(COc3nc4ccc(F)cc4s3)CC3CC2C3)c(-c2ccccc2)s1 (stereo not shown) [Example 54]", "OX1 pKi (SPA binding)", 7.77],
  ["Cc1ccc(OCC2[C@H](C)C3CC(C3)N2C(=O)c2nc(C)ccc2-n2nccn2)nc1 (mixture of isomers) [Example 100]", "OX1 pKi (SPA binding)", 7.03],
  ["Cc1nc(C(=O)N2C(COc3ccc(F)cc3)CC3CC2C3)c(-c2ccccc2F)s1 (stereo not shown) [Example 40]", "OX1 pKi (SPA binding)", 7.33]
]}

Proceed to the following item.
API: value(readout= OX1 pKi (SPA binding), system= human Orexin type 1 receptors (Homo sapiens (Human), UniProt O43613), query= Cc1ccc(-n2nccn2)c(C(=O)N2C3CC(C3)[C@H](C)C2COc2ccc(Cl)cc2)n1 (stereo partly shown) [Example 112] )
7.83
